- target_or_test_system: EGFR (Homo sapiens (Human))
- Sequence (P00533 25-1210): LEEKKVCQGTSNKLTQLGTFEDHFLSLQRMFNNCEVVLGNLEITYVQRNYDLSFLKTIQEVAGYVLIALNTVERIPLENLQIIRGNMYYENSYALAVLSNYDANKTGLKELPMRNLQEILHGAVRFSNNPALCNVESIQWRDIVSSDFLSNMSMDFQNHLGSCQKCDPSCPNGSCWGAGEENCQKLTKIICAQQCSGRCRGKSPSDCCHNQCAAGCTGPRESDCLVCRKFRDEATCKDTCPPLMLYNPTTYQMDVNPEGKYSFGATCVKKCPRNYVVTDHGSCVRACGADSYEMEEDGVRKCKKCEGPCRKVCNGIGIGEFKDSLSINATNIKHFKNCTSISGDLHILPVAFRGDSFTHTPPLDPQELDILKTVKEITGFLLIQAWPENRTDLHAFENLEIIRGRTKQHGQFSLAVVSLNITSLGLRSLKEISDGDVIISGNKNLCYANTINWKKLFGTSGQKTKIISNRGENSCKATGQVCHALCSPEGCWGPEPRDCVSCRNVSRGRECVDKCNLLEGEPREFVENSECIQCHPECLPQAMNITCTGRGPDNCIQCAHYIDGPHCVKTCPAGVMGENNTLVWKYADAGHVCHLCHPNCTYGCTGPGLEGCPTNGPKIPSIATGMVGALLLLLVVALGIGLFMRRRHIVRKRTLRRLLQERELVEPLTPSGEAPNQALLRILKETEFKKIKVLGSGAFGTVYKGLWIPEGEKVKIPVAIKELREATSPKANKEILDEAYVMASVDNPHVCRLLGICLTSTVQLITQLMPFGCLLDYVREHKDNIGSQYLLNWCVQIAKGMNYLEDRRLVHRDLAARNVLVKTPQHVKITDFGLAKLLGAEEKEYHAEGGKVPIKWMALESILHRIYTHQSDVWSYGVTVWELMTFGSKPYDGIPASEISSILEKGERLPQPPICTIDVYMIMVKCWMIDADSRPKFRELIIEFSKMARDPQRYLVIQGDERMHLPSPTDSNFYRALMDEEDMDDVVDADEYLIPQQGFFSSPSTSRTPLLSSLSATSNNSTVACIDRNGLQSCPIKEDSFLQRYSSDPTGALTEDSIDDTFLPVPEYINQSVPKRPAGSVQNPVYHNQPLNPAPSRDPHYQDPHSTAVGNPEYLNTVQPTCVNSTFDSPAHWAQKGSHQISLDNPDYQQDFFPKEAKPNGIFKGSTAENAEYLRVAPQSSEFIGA
readout_kind: IC50

In the examples that follow, each entry is paired with its recorded IC50.
COCCO[C@H]1C=C[C@H](n2nc(-c3ccc(CNC(=O)c4ccccc4OC)cc3)c3c(N)ncnc32)C1 = 1000 to 10000 nM
COc1ccccc1C(=O)NCc1ccc(-c2nn([C@H]3C=C[C@H](NC(C)=O)C3)c3ncnc(N)c23)cc1 = 1000 to 10000 nM
COc1ccccc1C(=O)NCc1ccc(-c2nn(CC(F)(F)F)c3ncnc(N)c23)cc1 = > 10000 nM
COc1ccccc1C(=O)NCc1ccc(-c2nn(C3CCC(C(=O)N(C)C)CC3)c3ncnc(N)c23)cc1 (single isomer, unassigned; isomer 1) [33-isomer 1] = 100 to 1000 nM
COc1ccccc1C(=O)NC1(c2ccc(-c3nn(C4CCCC4)c4ncnc(N)c34)cc2)CC1 = 1000 to 10000 nM

QUERY: State recorded IC50 with EGFR (Homo sapiens (Human)), entry COc1ccccc1C(=O)NCc1ccc(-c2nn(C3CCC(C(=O)O)CC3)c3ncnc(N)c23)cc1 (centres unmarked) , no comment.
RESULT: 100 to 1000 nM

QUERY: State recorded IC50 with EGFR (Homo sapiens (Human)), entry COc1ccccc1C(=O)NCc1ccc(-c2nn([C@H]3C=C[C@H](OC(C)=O)C3)c3ncnc(N)c23)cc1 , no comment.
RESULT: 10 to 100 nM

QUERY: State recorded IC50 with EGFR (Homo sapiens (Human)), entry COc1ccccc1C(=O)NCc1ccc(-c2nn(CC(C)C)c3ncnc(N)c23)cc1 , no comment.
RESULT: 100 to 1000 nM

QUERY: State recorded IC50 with EGFR (Homo sapiens (Human)), entry COc1ccccc1C(=O)NCc1ccc(-c2nn(C3CCCO3)c3ncnc(N)c23)cc1 (centres unmarked) , no comment.
RESULT: 1000 to 10000 nM

QUERY: State recorded IC50 with EGFR (Homo sapiens (Human)), entry COc1ccc(F)cc1C(=O)NCc1ccc(-c2nn(C3CCC(C)(O)CC3)c3ncnc(N)c23)cc1 (single isomer, unassigned) [Example 95] , no comment.
RESULT: 100 to 1000 nM

QUERY: State recorded IC50 with EGFR (Homo sapiens (Human)), entry COc1ccccc1C(=O)NCc1ccc(-c2nn(C(C)(C)C)c3ncnc(N)c23)cc1 , no comment.
RESULT: 10 to 100 nM

QUERY: State recorded IC50 with EGFR (Homo sapiens (Human)), entry CCO[C@H]1C=C[C@H](n2nc(-c3ccc(CNC(=O)c4ccccc4OC)cc3)c3c(N)ncnc32)C1 , no comment.
RESULT: 1000 to 10000 nM

QUERY: State recorded IC50 with EGFR (Homo sapiens (Human)), entry COc1ccccc1C(=O)NCc1ccc(-c2nn(C3CCC(=O)C3)c3ncnc(N)c23)cc1 (centres unmarked) , no comment.
RESULT: 1000 to 10000 nM

QUERY: State recorded IC50 with EGFR (Homo sapiens (Human)), entry COc1c(C)cccc1C(=O)NCc1ccc(-c2nn(C3CCCC3)c3ncnc(N)c23)cc1 , no comment.
RESULT: 1000 to 10000 nM

QUERY: State recorded IC50 with EGFR (Homo sapiens (Human)), entry COc1ccccc1C(=O)NCc1ccc(-c2nn([C@H]3C=C[C@H](O)C3)c3ncnc(N)c23)cc1 , no comment.
RESULT: 100 to 1000 nM

QUERY: State recorded IC50 with EGFR (Homo sapiens (Human)), entry COCCNc1ncnc2c1c(-c1ccc(CNC(=O)c3ccccc3OC)cc1)nn2[C@H]1C=C[C@H](O)C1 , no comment.
RESULT: 1000 to 10000 nM

QUERY: State recorded IC50 with EGFR (Homo sapiens (Human)), entry COc1ccc(F)cc1C(=O)NCc1ccc(-c2nn(C3CCCC3)c3ncnc(N)c23)cc1F , no comment.
RESULT: 1000 to 10000 nM

QUERY: State recorded IC50 with EGFR (Homo sapiens (Human)), entry COc1ccncc1C(=O)NCc1ccc(-c2nn(C3CCCC3)c3ncnc(N)c23)cc1 , no comment.
RESULT: 100 to 1000 nM

QUERY: State recorded IC50 with EGFR (Homo sapiens (Human)), entry COc1ccccc1C(=O)NCc1ccc(-c2nn([C@@H]3C[C@@H](O)C4CC43)c3ncnc(N)c23)cc1 (some centres unmarked) , no comment.
RESULT: 100 to 1000 nM

* * *

- Test system: OCI-Ly10 human DLBCL cells
- procedure_text: OCI-Ly10 anti-proliferative activity (Resazurin, 72 h)
- Format: cell-based
- condition_context: Homo sapiens, OCI-Ly10, 72 h, read-out: Proliferation OCI-Ly10-IC50
readout_kind: IC50

COc1ccccc1C(=O)NCc1ccc(-c2nn(C3CCC(OC(=O)c4ccc(C)cc4)CC3)c3ncnc(N)c23)cc1 (stereo not shown) = 100 to 1000 nM

QUERY: State recorded IC50 with OCI-Ly10 human DLBCL cells, entry COc1ccccc1C(=O)NCc1ccc(-c2nn(C3CCC(C)C3)c3ncnc(N)c23)cc1 (stereo not shown) , no comment.
RESULT: 10 to 100 nM

QUERY: State recorded IC50 with OCI-Ly10 human DLBCL cells, entry COc1ccccc1C(=O)NCc1ccc(-c2nn([C@H]3C=C[C@@H](OC(=O)C(C)(C)C)C3)c3ncnc(N)c23)cc1 , no comment.
RESULT: 100 to 1000 nM

QUERY: State recorded IC50 with OCI-Ly10 human DLBCL cells, entry COc1ccccc1C(=O)NCc1ccc(-c2nn([C@H]3C=C[C@H](F)C3)c3ncnc(N)c23)cc1 , no comment.
RESULT: 100 to 1000 nM

* * *

- target_or_test_system: BTK^WT (Homo sapiens (Human), UniProt Q06187)
- Sequence (Q06187 whole entry): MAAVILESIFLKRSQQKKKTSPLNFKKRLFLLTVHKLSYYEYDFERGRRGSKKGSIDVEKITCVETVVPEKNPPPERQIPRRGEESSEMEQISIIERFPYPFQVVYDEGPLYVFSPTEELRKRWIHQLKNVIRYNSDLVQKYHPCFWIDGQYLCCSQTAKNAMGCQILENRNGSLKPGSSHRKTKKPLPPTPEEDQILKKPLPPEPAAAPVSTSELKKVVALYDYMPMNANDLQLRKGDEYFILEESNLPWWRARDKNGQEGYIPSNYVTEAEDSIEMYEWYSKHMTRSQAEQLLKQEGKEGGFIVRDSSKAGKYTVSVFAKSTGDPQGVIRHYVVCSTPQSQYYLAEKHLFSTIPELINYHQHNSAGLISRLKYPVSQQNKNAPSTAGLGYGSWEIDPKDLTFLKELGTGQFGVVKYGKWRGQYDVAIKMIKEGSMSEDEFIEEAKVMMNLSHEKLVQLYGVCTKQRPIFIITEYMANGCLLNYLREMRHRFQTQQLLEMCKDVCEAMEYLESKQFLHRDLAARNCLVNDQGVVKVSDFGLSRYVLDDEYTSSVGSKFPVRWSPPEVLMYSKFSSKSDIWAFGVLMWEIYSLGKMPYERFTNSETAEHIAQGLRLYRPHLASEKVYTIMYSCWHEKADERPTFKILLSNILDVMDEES
- procedure_text: BTK^WT binding affinity (TR-FRET, LanthaScreen)
- condition_context: TR-FRET binding, 5 h incubation; read-out: BTK^WT IC50
Parameter IC50: see the listing below.

In the examples that follow, each entry is paired with its recorded IC50.
COc1ccccc1C(=O)NCc1ccc(-c2nn([C@H]3C=C[C@H](N)C3)c3ncnc(N)c23)cc1 = 0.01 to 0.1 µM
COc1ncccc1C(=O)NCc1ccc(-c2nn(C3CCCC3)c3ncnc(N)c23)cc1 = 0.01 to 0.1 µM
COc1ccccc1C(=O)NCc1ccc(-c2nn(C3CCC(C)(O)CC3)c3ncnc(N)c23)cc1 (single isomer, unassigned) [Example 91] = ≤ 0.01 µM
COc1ccccc1C(=O)NCc1ccc(-c2nn(C3CCC(C(=O)N(C)C)CC3)c3ncnc(N)c23)cc1 (single isomer, unassigned; isomer 1) [33-isomer 1] = ≤ 0.01 µM
Nc1ncnc2c1c(-c1ccc(CNC(=O)c3ccc4ccccc4n3)cc1)nn2C1CCCC1 = 1 to 10 µM
COc1ccccc1C(=O)NCc1ccc(-c2nn(C(C)C)c3ncnc(N)c23)cc1 = ≤ 0.01 µM

Continue with the molecule presented below.
QUERY: Complete the entry with IC50 for COc1ccccc1C(=O)NCc1ccc(-c2nn(C3CCC(OC(=O)c4ccc(C)cc4)CC3)c3ncnc(N)c23)cc1 (stereo not shown)
RESULT: 0.01 to 0.1 µM

* * *

- target_or_test_system: BTK^C481S (Homo sapiens (Human), UniProt Q06187, C481S)
- Sequence (Q06187 whole entry C481S): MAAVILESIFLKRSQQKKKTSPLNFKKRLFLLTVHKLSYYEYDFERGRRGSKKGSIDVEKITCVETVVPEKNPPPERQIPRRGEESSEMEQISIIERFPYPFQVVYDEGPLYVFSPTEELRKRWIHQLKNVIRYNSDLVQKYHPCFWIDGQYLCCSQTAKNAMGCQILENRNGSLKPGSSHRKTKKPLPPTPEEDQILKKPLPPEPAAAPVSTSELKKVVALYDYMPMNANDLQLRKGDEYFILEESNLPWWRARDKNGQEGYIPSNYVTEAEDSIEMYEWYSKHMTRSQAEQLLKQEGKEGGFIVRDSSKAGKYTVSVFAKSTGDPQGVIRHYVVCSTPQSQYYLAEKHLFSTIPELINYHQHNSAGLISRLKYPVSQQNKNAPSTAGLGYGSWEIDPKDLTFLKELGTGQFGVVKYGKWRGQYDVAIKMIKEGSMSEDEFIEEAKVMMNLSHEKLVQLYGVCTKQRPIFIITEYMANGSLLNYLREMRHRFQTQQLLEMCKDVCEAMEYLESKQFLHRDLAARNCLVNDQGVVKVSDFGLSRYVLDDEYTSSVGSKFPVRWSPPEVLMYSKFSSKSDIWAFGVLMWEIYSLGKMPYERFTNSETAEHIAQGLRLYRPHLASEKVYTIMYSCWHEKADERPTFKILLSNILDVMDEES
- procedure_text: BTK^C481S binding affinity (TR-FRET, LanthaScreen)
- condition_context: 5 h incubation
readout_kind: IC50

COc1ccccc1C(=O)NCc1ccc(-c2nn(CC(C)O)c3ncnc(N)c23)cc1 (stereo not shown) = 10 to 100 nM

QUERY: Complete the entry with IC50 for COc1ccccc1C(=O)NCc1ccc(-c2nn(C3CCCC(O)C3)c3ncnc(N)c23)cc1 (stereo not shown)
RESULT: ≤ 10 nM

QUERY: Complete the entry with IC50 for COc1ccccc1C(=O)NCc1ccc(-c2nn(C3CCCO3)c3ncnc(N)c23)cc1 (stereo not shown)
RESULT: 10 to 100 nM

QUERY: Complete the entry with IC50 for COc1ccccc1C(=O)NCc1ccc(-c2nn([C@@H]3CC[C@H](O)C3)c3ncnc(N)c23)cc1 (relative stereo)
RESULT: ≤ 10 nM

QUERY: Complete the entry with IC50 for COc1ccccc1C(=O)NCc1ccc(-c2nn(C3CCC(OC(=O)c4ccc(C)cc4)CC3)c3ncnc(N)c23)cc1 (stereo not shown)
RESULT: 10 to 100 nM

QUERY: Complete the entry with IC50 for COc1ccc(F)cc1C(=O)NCc1ccc(-c2nn(C3CCCC3)c3ncnc(N)c23)cc1F
RESULT: ≤ 10 nM

QUERY: Complete the entry with IC50 for Nc1ncnc2c1c(-c1ccc(CNC(=O)c3cccc4cccnc34)cc1)nn2C1CCCC1
RESULT: ≤ 10 nM

QUERY: Complete the entry with IC50 for COCCO[C@H]1C=C[C@H](n2nc(-c3ccc(CNC(=O)c4ccccc4OC)cc3)c3c(N)ncnc32)C1
RESULT: 1000 to 10000 nM

QUERY: Complete the entry with IC50 for COc1ccc(F)cc1C(=O)NCc1ccc(-c2nn(CC(F)(F)F)c3ncnc(N)c23)cc1
RESULT: ≤ 10 nM

QUERY: Complete the entry with IC50 for COc1ccccc1C(=O)NCc1ccc(-c2nn(C3C=CCCC3)c3ncnc(N)c23)cc1 (stereo not shown)
RESULT: ≤ 10 nM

QUERY: Complete the entry with IC50 for COc1ccccc1C(=O)NCc1ccc(-c2nn(C(C)C)c3ncnc(N)c23)cc1
RESULT: ≤ 10 nM

QUERY: Complete the entry with IC50 for COc1ccccc1C(=O)NCc1ccc(-c2nn(C3CCCOC3)c3ncnc(N)c23)cc1 (stereo not shown)
RESULT: ≤ 10 nM

QUERY: Complete the entry with IC50 for COc1ccccc1C(=O)NCc1ccc(-c2nn(C3CCC(C)C3)c3ncnc(N)c23)cc1 (stereo not shown)
RESULT: ≤ 10 nM
